Test system: MPTP-treated mice
Assay: Striatal dopamine and metabolites (HPLC-EC) in MPTP-treated mice
Details: morphinan 12 (mg/kg) + MPTP
readout.kind: Concentration HVA in the striatum
Express your answer as a number followed by its unit.

Worked examples, 4 compounds total:
Q: Query: Concentration HVA in the striatum; subject: COc1ccc2c(c1)[C@@]13CCCC[C@H]1[C@@H](C2)N(C)CC3 [DM, 3-methoxy-17-methylmorphinan, reference compound]
Result: 82 ± 9 ng/100 mg wet tissue

Q: Which Concentration HVA in the striatum is reported for this compound? Oc1ccc2c(c1)[C@@]13CCCC[C@H]1[C@@H](C2)NCC3 [HM, 3-hydroxymorphinan]
Result: 84 ± 8 ng/100 mg wet tissue

Q: Need Concentration HVA in the striatum of C=CCOc1ccc2c(c1)[C@@]13CCCC[C@H]1[C@@H](C2)N(C)CC3 [AM, 3-allyloxy-17-methylmorphinan] , thanks.
Result: 69 ± 5 ng/100 mg wet tissue

Q: Given Cc1ccc2c(c1)[C@@]13CCCC[C@H]1[C@@H](C2)N(C)CC3 [DF, 3-methyl-17-methyl-morphinan] , state its recorded Concentration HVA in the striatum.
Result: 62 ± 7 ng/100 mg wet tissue

Below: the item to evaluate.
Q: If you can, please state the reported Concentration HVA in the striatum value of CN1CC[C@]23CCCC[C@H]2[C@H]1Cc1ccc(OCC2CC2)cc13 [CM, 3-cyclopropylmethoxy-17-methylmorphinan] .
Result: 68 ± 9 ng/100 mg wet tissue

----------
System: MPTP-treated mice
Experiment: Striatal dopamine and metabolites (HPLC-EC) in MPTP-treated mice
Settings: morphinan 24 (mg/kg) + MPTP
Marks after values point to notes of the source that are not given here.
readout.kind: Concentration DOPAC in the striatum

Example results:
Q: What Concentration DOPAC in the striatum value was documented for this compound, C=CCOc1ccc2c(c1)[C@@]13CCCC[C@H]1[C@@H](C2)N(C)CC3 ?
Result: 66 ± 8 ng/100 mg wet tissue

Q: Name the reported Concentration DOPAC in the striatum value associated with the compound COc1ccc2c(c1)[C@@]13CCCC[C@H]1[C@@H](C2)N(C)CC3 [DM, 3-methoxy-17-methylmorphinan, reference compound]
Result: 85 ± 10^b ng/100 mg wet tissue

Q: Field request: Concentration DOPAC in the striatum | item: Oc1ccc2c(c1)[C@@]13CCCC[C@H]1[C@@H](C2)NCC3 [HM, 3-hydroxymorphinan]
Result: 98 ± 9^c ng/100 mg wet tissue

Q: Give the measured Concentration DOPAC in the striatum of Cc1ccc2c(c1)[C@@]13CCCC[C@H]1[C@@H](C2)N(C)CC3 .
Result: 52 ± 7 ng/100 mg wet tissue

Proceed to the following item.
Q: Which Concentration DOPAC in the striatum value is on record for CN1CC[C@]23CCCC[C@H]2[C@H]1Cc1ccc(OCC2CC2)cc13 ?
Result: 78 ± 10^b ng/100 mg wet tissue

----------
System: MPTP-treated mice
Assay: Striatal dopamine and metabolites (HPLC-EC) in MPTP-treated mice
Conditions: morphinan 24 (mg/kg) + MPTP
Marks after values point to notes of the source that are not given here.
Concentration HVA in the striatum: recorded values

Q: Name the recorded Concentration HVA in the striatum for COc1ccc2c(c1)[C@@]13CCCC[C@H]1[C@@H](C2)N(C)CC3 [DM, 3-methoxy-17-methylmorphinan, reference compound] .
Result: 98 ± 11^b ng/100 mg wet tissue

Q: Entry CN1CC[C@]23CCCC[C@H]2[C@H]1Cc1ccc(OCC2CC2)cc13 : reported Concentration HVA in the striatum = ?
Result: 89 ± 7^b ng/100 mg wet tissue

Q: Entry Oc1ccc2c(c1)[C@@]13CCCC[C@H]1[C@@H](C2)NCC3 [HM, 3-hydroxymorphinan] has what Concentration HVA in the striatum?
Result: 104 ± 10^c ng/100 mg wet tissue

----------
Test system: MPTP-treated mice
Assay: Striatal dopamine and metabolites (HPLC-EC) in MPTP-treated mice
Conditions: morphinan 24 (mg/kg) + MPTP; mean ± S.E.M., 8 animals
Marks after values point to notes of the source that are not given here.
readout.kind: Concentration DA in the striatum

Some entries whose results are on file:
Q: So what's the measured Concentration DA in the striatum for this one? COc1ccc2c(c1)[C@@]13CCCC[C@H]1[C@@H](C2)N(C)CC3 [DM, 3-methoxy-17-methylmorphinan, reference compound]
Result: 708 ± 82^b ng/100 mg wet tissue

Q: Fill in: Concentration DA in the striatum of Oc1ccc2c(c1)[C@@]13CCCC[C@H]1[C@@H](C2)NCC3 [HM, 3-hydroxymorphinan] is ___
Result: 896 ± 79^c ng/100 mg wet tissue

Continue with the next compound.
Q: Quick one: Concentration DA in the striatum of CN1CC[C@]23CCCC[C@H]2[C@H]1Cc1ccc(OCC2CC2)cc13 [CM, 3-cyclopropylmethoxy-17-methylmorphinan] ?
Result: 587 ± 76^b ng/100 mg wet tissue

Ref: patent US7691874B2
